The reported measurements were obtained from paper PMC12067442.

Exercise: for every item that follows, state its recorded IC50.
Tested on: dopamine (DA) uptake in PC12 cells
Measurement Notes: cells
Setup Conditions: Rattus norvegicus, PC-12, 2 h, read-out: IC50 (nM) - DA Uptake Inhibition
Answers are plain numbers, in nM.

>>> print(df.to_string())
                                   compound  measured_metric  obs_value
0  Clc1ccc2c(c1)C(N1CCNCC1)=Nc1ccccc1O2 [Amox, amoxapine]             IC50         11

Shift focus to the following entry.
Incoming: Return reported IC50. Input compound: COc1ccc(C(CN(C)C)C2(O)CCCCC2)cc1 (centres unmarked) [Venla, venlafaxine]
Outgoing: 1340

====

Assayed Target: dopamine transporter (DAT, SLC6A3) (Homo sapiens)
Construct: purchased Eurofins Cerep SA
Sequence (Q01959 whole entry): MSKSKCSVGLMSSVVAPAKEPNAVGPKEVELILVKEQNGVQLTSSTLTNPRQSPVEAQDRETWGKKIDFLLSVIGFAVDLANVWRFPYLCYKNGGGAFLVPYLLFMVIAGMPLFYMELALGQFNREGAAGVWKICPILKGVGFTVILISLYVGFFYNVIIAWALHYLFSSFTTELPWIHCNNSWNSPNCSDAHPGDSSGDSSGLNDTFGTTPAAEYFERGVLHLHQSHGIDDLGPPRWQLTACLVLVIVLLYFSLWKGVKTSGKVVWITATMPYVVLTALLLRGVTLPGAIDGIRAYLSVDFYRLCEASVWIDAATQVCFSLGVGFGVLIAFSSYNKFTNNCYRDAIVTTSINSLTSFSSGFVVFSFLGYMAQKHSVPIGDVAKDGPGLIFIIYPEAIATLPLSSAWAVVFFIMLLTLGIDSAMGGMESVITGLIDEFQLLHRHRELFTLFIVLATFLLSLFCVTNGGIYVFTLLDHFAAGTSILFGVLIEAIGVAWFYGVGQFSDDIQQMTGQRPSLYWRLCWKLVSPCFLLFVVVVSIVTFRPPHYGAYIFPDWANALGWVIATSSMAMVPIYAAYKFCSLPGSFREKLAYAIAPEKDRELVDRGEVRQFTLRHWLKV
Measurement Notes: radioligand displacement assay on DAT (Eurofins Cerep SA)
Assay type: binding
Setup Conditions: read-out: % Inhibition @ 10 µM on DAT
Measured Metric: inhibition at 10 µM (%)
Give bare numbers, in %.

Recorded results for 3 molecules are shown here.
>>> df
                                   molecule  obs_value
0  c1ccc(CN2CCCC[C@@H]3NCCC[C@H]32)cc1 [40b]         41
1  C1CC[C@@H]2NCCC[C@H]2NC1 (relative stereo) [3b]       -5.2
2  C1CC[C@H]2NCC[C@H]2NC1 (relative stereo) [2a, Decahydropyrrolo[3,2-b]azepine]        6.4

// switching to the query molecule
Incoming: Jot down inhibition at 10 µM (dopamine transporter (DAT, SLC6A3) (Homo sapiens)) of c1ccc(CN2CCCC[C@@H]3NCC[C@H]32)cc1 [1b, 4-Benzyldecahydropyrrolo[3,2-b]azepine] .
Outgoing: 81.8
